Biological target: human progesterone receptor B (Homo sapiens, UniProt P06401)
Sequence (P06401 whole entry): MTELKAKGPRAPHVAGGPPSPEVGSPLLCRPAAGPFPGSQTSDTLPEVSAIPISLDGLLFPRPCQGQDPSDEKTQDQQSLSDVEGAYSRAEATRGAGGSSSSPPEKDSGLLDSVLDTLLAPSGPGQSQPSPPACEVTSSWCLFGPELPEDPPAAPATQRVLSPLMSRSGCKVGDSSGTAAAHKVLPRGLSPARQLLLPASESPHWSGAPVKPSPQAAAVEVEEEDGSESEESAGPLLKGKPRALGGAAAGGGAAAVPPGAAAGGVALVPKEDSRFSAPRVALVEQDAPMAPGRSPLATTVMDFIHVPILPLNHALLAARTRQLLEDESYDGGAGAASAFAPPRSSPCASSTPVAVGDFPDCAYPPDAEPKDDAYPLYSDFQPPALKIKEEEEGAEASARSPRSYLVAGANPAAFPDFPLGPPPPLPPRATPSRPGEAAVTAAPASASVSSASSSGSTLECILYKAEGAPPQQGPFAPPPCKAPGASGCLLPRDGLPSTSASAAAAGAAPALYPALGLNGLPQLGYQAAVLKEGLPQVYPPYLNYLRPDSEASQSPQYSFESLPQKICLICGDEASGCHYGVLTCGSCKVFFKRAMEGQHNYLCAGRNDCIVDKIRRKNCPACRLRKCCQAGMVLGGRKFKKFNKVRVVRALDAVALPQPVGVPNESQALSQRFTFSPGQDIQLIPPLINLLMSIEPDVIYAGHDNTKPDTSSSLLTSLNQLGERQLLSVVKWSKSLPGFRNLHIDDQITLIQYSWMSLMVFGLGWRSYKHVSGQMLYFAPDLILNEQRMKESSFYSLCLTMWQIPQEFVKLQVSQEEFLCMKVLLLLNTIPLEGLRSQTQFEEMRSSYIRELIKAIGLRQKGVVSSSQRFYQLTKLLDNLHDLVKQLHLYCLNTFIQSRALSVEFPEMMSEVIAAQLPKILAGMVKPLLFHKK
Experiment: Progesterone receptor-antagonistic action in stably transfected SK-N-MC cells, MTV-LUC reporter (PR-B)
Conditions: antagonism of 0.1 nmol/l promegestone, 24 hours, LUC reporter, read-out: Progesterone receptor B (PR-B) Potency IC50
MEASURED QUANTITY: pIC50
Note on pIC50: it is the negative log10 of concentration, concentration in mol/L.

Task: If you can, please state the reported pIC50 value of CN(C)S(=O)(=O)c1ccc([C@H]2C[C@@]3(C)[C@@H](CC[C@@]3(O)C(F)(F)C(F)(F)F)[C@@H]3CCC4=CC(=O)CCC4=C32)cc1 .
Output: 9.70

Task: Try this compound too: C[C@]12C[C@H](c3ccc(-c4ccc(S(C)(=O)=O)cc4)cc3)C3=C4CCC(=O)C=C4CC[C@H]3[C@@H]1CC[C@@]2(O)C(F)(F)C(F)(F)F
Output: 10.89

Task: Try this compound too: CC(=O)c1ccc(C2CC3(C)C(CCC3(O)C(F)(F)C(F)(F)F)C3CCC4=CC(=O)CCC4=C23)cc1 (stereo not shown) [reference compound]
Output: 10.70

Task: Try this compound too: CSc1ccc(-c2ccc([C@H]3C[C@@]4(C)[C@@H](CC[C@@]4(O)C(F)(F)C(F)(F)F)[C@@H]4CCC5=CC(=O)CCC5=C43)cc2)cc1
Output: 11.00

====

Molecular target: human progesterone receptor A (Homo sapiens, UniProt P06401)
Test: Progesterone receptor-antagonistic action in stably transfected SK-N-MC cells, MTV-LUC reporter (PR-A)
Details: antagonism of 0.1 nmol/l promegestone, 24 hours, LUC reporter, read-out: Progesterone receptor A (PR-A) Potency IC50
For each entry below, report its IC50 value.
Report the figure in nM without appending any unit label.

Task: If you can, please state the reported IC50 value of CC(=O)c1ccc(C2CC3(C)C(CCC3(O)C(F)(F)C(F)(F)F)C3CCC4=CC(=O)CCC4=C23)cc1 (stereo not drawn) [reference compound] .
Output: 0.014

Task: Try this compound too: CCSc1ccc([C@H]2C[C@@]3(C)C(CC[C@@]3(O)C(F)(F)C(F)(F)F)C3CCC4=CC(=O)CCC4=C32)cc1 (stereo partly drawn)
Output: 0.01

Task: Try this compound too: CSc1ccc(-c2ccc([C@H]3C[C@@]4(C)[C@@H](CC[C@@]4(O)C(F)(F)C(F)(F)F)[C@@H]4CCC5=CC(=O)CCC5=C43)cc2)cc1
Output: 0.01

Task: Try this compound too: CN(C)S(=O)(=O)c1ccc([C@H]2C[C@@]3(C)[C@@H](CC[C@@]3(O)C(F)(F)C(F)(F)F)[C@@H]3CCC4=CC(=O)CCC4=C32)cc1
Output: 0.1

Task: Try this compound too: C[C@]12C[C@H](c3ccc(-c4ccc(S(C)(=O)=O)cc4)cc3)C3=C4CCC(=O)C=C4CC[C@H]3[C@@H]1CC[C@@]2(O)C(F)(F)C(F)(F)F
Output: 0.011

Task: Try this compound too: CN(C)S(=O)(=O)c1ccc(-c2ccc([C@H]3C[C@@]4(C)[C@@H](CC[C@@]4(O)C(F)(F)C(F)(F)F)[C@@H]4CCC5=CC(=O)CCC5=C43)cc2)cc1
Output: 0.01
